Origin of measurements: patent US7122668B2

tested on: CH1; experiment: Microculture tetrazolium (MTS) cell survival assay; type: cell-based; conditions: 24 hours incubation
experimental.endpoint: pIC50
Numbers only, as −log10 of the molar value.

Recorded pIC50, per entry:
molecule	pIC50
C1CNCCN1.Cl.N.[Cl][Pt@SP1][Cl] [Complex 16, cis-[PtCl2(NH3)(piperazine)].HCl]	4.55
C1CNCCN1.Cl.N.[Cl][Pt][Cl] [Complex 8, Trans-[PtCl2(NH3)(piperazine)].HCl]	4.92
C1CCNCC1.C1CCNCC1.[Cl][Pt][Cl] [cis-PtCl2(pip)2, reference compound]	4.49
C1CCNCC1.Cc1ccncc1.[Cl][Pt][Cl] [Complex 5, trans-[PtCl2(4-picoline)(piperidine)]]	4.59
N.N.[Cl][Pt][Cl] [Cisplatin, cis-[PtCl2(NH3)2], reference compound]	5.22

Each molecule below has a reported value. Please supply its pIC50.
1. C1CCNCC1.N.[Cl][Pt][Cl] [Complex 7, cis-[PtCl2(NH3)(piperidine)]]
2. C1CNCCN1.C1CNCCN1.Cl.[Cl][Pt][Cl]

Data returned:
1. 4.44
2. 4.59

---

test system: calf thymus DNA; assay: DNA binding (calf thymus DNA platination); conditions: rb = 0.05; 0.01M Na+
experimental.endpoint: ΔTm, 0.01M Na+

Recorded ΔTm, 0.01M Na+, per entry:
compound	experimental.endpoint	result
C1CNCCN1.Cl.N.[Cl][Pt@SP1][Cl] [Complex 16, cis-[PtCl2(NH3)(piperazine)].HCl]	ΔTm, 0.01M Na+	3.5 0.C
N.N.[Cl][Pt][Cl] [Cisplatin, cis-[PtCl2(NH3)2], reference compound]	ΔTm, 0.01M Na+	−2.6 0.C
C1CNCCN1.Cl.N.[Cl][Pt][Cl] [Complex 8, Trans-[PtCl2(NH3)(piperazine)].HCl]	ΔTm, 0.01M Na+	6.3 0.C
Cc1ccncc1.N.[Cl][Pt][Cl] [trans-[PtCl2(NH3)(4-picoline)]] [reference compound]	ΔTm, 0.01M Na+	+7.2 0.C
C1CCNCC1.Cc1ccncc1.[Cl][Pt][Cl] [Complex 5, trans-[PtCl2(4-picoline)(piperidine)]]	ΔTm, 0.01M Na+	+5.5 0.C

Data request: Answer with the recorded ΔTm, 0.01M Na+ of N.N.[Cl][Pt+2][Cl] [Transplatin, trans-[PtCl2(NH3)2], reference compound] only.
Data returned: +8.7 0.C

---

Tested on: C-26 cells
Type: cell-based
Details: C-26 cells, 4 h exposure, mean ± SD; read-out: IC50, 4 h
Procedure: A human ovarian carcinoma cell line (OV-1063), established at the Hadassah University hospital and human colon carcinoma cell line (C-26) were maintained in RPMI-1640 medium supplemented with 10% FCS, antibiotics and glutamine. All culture medium components were purchased from Biological Industries (Beit-HaEmek, Israel). Both cell lines were maintained at 37° C. in a water-jacketed CO2 incubator. Cytotoxicity of the synthesized complexes was tested by the methylene blue (MB) staining assay^(19). […]
Provide the reported pIC50 of each item.
One number for each entry, as −log10 of the molar value.

compound	target.or.system	pIC50
Cc1ccncc1.N.[Cl][Pt][Cl] [trans-[PtCl2(NH3)(4-picoline)]] [reference compound]	C-26 cells	4.92
Cc1ccncc1.N.[Cl][Pt][Cl] [cis-[PtCl2(NH3)(4-picoline)]] [reference compound]	C-26 cells	5.29
N.N.[Cl][Pt+2][Cl] [Transplatin, trans-[PtCl2(NH3)2], reference compound]	C-26 cells	4.19

Okay, now this compound:
Data request: Would you please give the reported pIC50 of N.N.[Cl][Pt][Cl] [Cisplatin, cis-[PtCl2(NH3)2], reference compound] with C-26 cells?
Data returned: 5.82

---

tested on: A2780cisR; test: Microculture tetrazolium (MTS) cell survival assay; type: cell-based; conditions: A2780cisR/A2780
Criterion: resistance factor (IC50 resistant/IC50 sensitive) meeting or surpassing 9. Met: satisfied. Not met: not satisfied.

Sample answers from the record:
compound	category
C1CNCCN1.Cl.N.[Cl][Pt@SP1][Cl] [Complex 16, cis-[PtCl2(NH3)(piperazine)].HCl]	not satisfied
C1CNCCN1.C1CNCCN1.Cl.[Cl][Pt][Cl]	not satisfied
N.N.[Cl][Pt][Cl] [Cisplatin, cis-[PtCl2(NH3)2], reference compound]	satisfied

Now consider the entry below.
Data request: Answer whether resistance factor (IC50 resistant/IC50 sensitive) of C1CCNCC1.Cc1ccncc1.[Cl][Pt][Cl] [Complex 5, trans-[PtCl2(4-picoline)(piperidine)]] is greater than or equal to 9.
Data returned: satisfied

---

System: 41M
Test: Microculture tetrazolium (MTS) cell survival assay
Format: cell-based
Settings: 24 hours incubation
Protocol: Cytotoxicity of the synthesized complexes was also tested by the MTS method^(21). Accordingly, the compounds were incubated for 24 hours with the corresponding cell lines and the cell survival in compound-treated cultures was evaluated. The complexes were incubated for 24 hours with the above mentioned cell lines and the cell survival in compound-treated cultures was evaluated by the (microculture tetrazolium) MTS method as previously reported.
experimental.endpoint: pIC50
Numbers only, as −log10 of the molar value.

Recorded pIC50, per entry:
compound	target.or.system	pIC50
C1CNCCN1.C1CNCCN1.Cl.[Cl][Pt][Cl]	41M	4.37
N.N.[Cl][Pt][Cl] [Cisplatin, cis-[PtCl2(NH3)2], reference compound]	41M	4.59
C1CNCCN1.Cl.N.[Cl][Pt@SP1][Cl] [Complex 16, cis-[PtCl2(NH3)(piperazine)].HCl]	41M	4.34
C1CCNCC1.N.[Cl][Pt][Cl] [Complex 7, cis-[PtCl2(NH3)(piperidine)]]	41M	4.19
C1CCNCC1.C1CCNCC1.[Cl][Pt][Cl] [cis-PtCl2(pip)2, reference compound]	41M	4.30
C1CCNCC1.Cc1ccncc1.[Cl][Pt][Cl] [Complex 5, trans-[PtCl2(4-picoline)(piperidine)]]	41M	4.46

Okay, now this compound:
Data request: Would you please give the reported pIC50 of C1CNCCN1.Cl.N.[Cl][Pt][Cl] [Complex 8, Trans-[PtCl2(NH3)(piperazine)].HCl] with 41M?
Data returned: 4.28

---

test system: calf thymus DNA; test: DNA binding (calf thymus DNA platination); conditions: rb = 0.05; 0.2 M
experimental.endpoint: ΔTm, 0.2 M

molecule	experimental.endpoint	result
C1CNCCN1.Cl.N.[Cl][Pt][Cl] [Complex 8, Trans-[PtCl2(NH3)(piperazine)].HCl]	ΔTm, 0.2 M	−1.9 0.C
N.N.[Cl][Pt][Cl] [Cisplatin, cis-[PtCl2(NH3)2], reference compound]	ΔTm, 0.2 M	−4.0 0.C
N.N.[Cl][Pt+2][Cl] [Transplatin, trans-[PtCl2(NH3)2], reference compound]	ΔTm, 0.2 M	+0.6 0.C
C1CCNCC1.Cc1ccncc1.[Cl][Pt][Cl] [Complex 5, trans-[PtCl2(4-picoline)(piperidine)]]	ΔTm, 0.2 M	+0.5 0.C
C1CNCCN1.Cl.N.[Cl][Pt@SP1][Cl] [Complex 16, cis-[PtCl2(NH3)(piperazine)].HCl]	ΔTm, 0.2 M	−4.5 0.C

Okay, now this molecule:
Data request: Answer with the recorded ΔTm, 0.2 M of Cc1ccncc1.N.[Cl][Pt][Cl] [trans-[PtCl2(NH3)(4-picoline)]] [reference compound] only.
Data returned: +0.6 0.C

---

test system: CH1cisR; assay: Microculture tetrazolium (MTS) cell survival assay; assay type: cell-based; details: 24 hours incubation, MTS
Provide the reported IC50 of each item.
One number for each entry, in µM.

Recorded IC50, per entry:
compound	readout.number
C1CNCCN1.Cl.N.[Cl][Pt@SP1][Cl] [Complex 16, cis-[PtCl2(NH3)(piperazine)].HCl]	56
N.N.[Cl][Pt][Cl] [Cisplatin, cis-[PtCl2(NH3)2], reference compound]	23
C1CNCCN1.C1CNCCN1.Cl.[Cl][Pt][Cl]	53
C1CCNCC1.C1CCNCC1.[Cl][Pt][Cl] [cis-PtCl2(pip)2, reference compound]	280
C1CNCCN1.Cl.N.[Cl][Pt][Cl] [Complex 8, Trans-[PtCl2(NH3)(piperazine)].HCl]	34
C1CCNCC1.N.[Cl][Pt][Cl] [Complex 7, cis-[PtCl2(NH3)(piperidine)]]	263

Okay, now this compound:
Data request: Answer with the recorded IC50 of C1CCNCC1.Cc1ccncc1.[Cl][Pt][Cl] [Complex 5, trans-[PtCl2(4-picoline)(piperidine)]] only.
Data returned: 169

---

system: A2780cisR; assay: Microculture tetrazolium (MTS) cell survival assay; type: cell-based; conditions: A2780cisR/A2780
experimental.endpoint: resistance factor (IC50 resistant/IC50 sensitive)
Answers are plain numbers.

compound	readout.number
C1CCNCC1.N.[Cl][Pt][Cl] [Complex 7, cis-[PtCl2(NH3)(piperidine)]]	9

Okay, now this compound:
Data request: Answer with the recorded resistance factor (IC50 resistant/IC50 sensitive) of C1CNCCN1.Cl.N.[Cl][Pt][Cl] [Complex 8, Trans-[PtCl2(NH3)(piperazine)].HCl] only.
Data returned: 8.8
